System: HS 578T breast
Experiment: NCI-60 one-dose screen, 48 h (100 = growth as untreated, 0 = no growth, -100 = all killed)
Conditions: 10 µM unless noted
Procedure: Growth inhibition of the HS 578T human tumor cell line is measured as a screen for anti-cancer activity. Cells are grown in 96 well plates and exposed to the test compound for 48 hours. Compounds are tested at a single concentration, which is 10^-5 M for most compounds. The reported endpoint is percent growth (GI% or GIPRCNT), where numbers from 0 - 100% represent growth inhibition, and numbers from -100% - 0 represent cell death. For example, a value of 40 represents 60% growth inhibition. […]
About 83,000 compounds went through this panel and 20% of them were active in at least one assay; those are over-represented in the sample as a whole. Active and inactive are the calls of the source. How the source made its calls: active means growth percent below 10; inactive means the rest.
result-type: growth

# annotated cases, reported growth shown
- C=C1C(=O)O[C@H]2[C@H]1CC/C(COC(=O)NCc1ccc(Cn3c(=O)sn(-c4ccccc4)c3=O)cc1)=C\CC[C@@]1(C)O[C@@H]21: 87.5% (inactive)
- O=C(C[C@]1(O)C(=O)Nc2ccc(Br)cc21)c1ccco1: 102% (inactive)
- COc1ccc(OC)c(Nc2nnc(-c3cc(OC)c(OC)c(OC)c3)o2)c1: 107% (inactive)

# map each compound to its growth
1. C=CC(=O)Nc1cccc(Oc2nccc(Nc3nnc(-c4ccc(Br)cc4)s3)n2)c1
2. C=C(c1ccc(C(=O)O)c(F)c1)c1cc2c(cc1C)C(C)(C)CCC2(C)C
3. COc1cc(-c2cc(-c3ccc(Nc4nc(Nc5ccc(Cl)cc5)nc(Nc5ccc(Cl)cc5)n4)cc3)no2)cc(OC)c1OC
4. Cn1cc(-c2csc(-c3cn(C)c4ccccc34)n2)c2cnccc21
5. C/C(=C(\c1ccc(OCCN2CCCCCC2)cc1)c1ccc(OC(=O)c2ccccc2)cc1)c1ccc(Cl)cc1

output:
1: 93.4% (inactive); 2: 59.6% (inactive); 3: 62.9% (inactive); 4: 97.5% (inactive); 5: 42% (inactive)

input: Quick check: growth of `Cc1nc2ccccc2c(/C=C/c2ccc(F)cc2)c1C(=O)/C=C/c1ccccc1` ?
output: 22.4% (inactive)

====

Tested on: MALME-3M melanoma
Assay: NCI-60 one-dose screen, 48 h (100 = growth as untreated, 0 = no growth, -100 = all killed)
Details: 10 µM unless noted
About 83,000 compounds went through this panel and 20% of them were active in at least one assay; those are over-represented in the sample as a whole.
Short version: growth at least 90% is y, less is n.

* Cc1cc(N2CCN(CC(=O)Nc3ccc4c(ccn4Cc4ccccc4)c3)CC2)nc(N2CCOCC2)n1 | n
* COCCn1cc(-c2nc(-c3cn(CCOC)c4ncccc34)cs2)c2cc(F)ccc21 | y
* COCCn1cc(-c2nc(-c3c[nH]c4ncccc34)cs2)c2ccccc21 | y

input: # check: growth of `CC[C@H](Nc1nc(N)nc(C)c1C#N)c1nc2cccc(CN(C)c3ncc(C(=O)NO)cn3)c2c(=O)n1-c1ccccc1` is greater than or equal to 90%
output: n

input: Does the compound `CN(C)c1ccc([C@@H](C(=O)Nc2cccc([N+](=O)[O-])c2)N(C(=O)c2cc3ccccc3[nH]2)c2cccc([N+](=O)[O-])c2)cc1` have recorded growth that is 90% or more?
output: y

input: Confirm if growth reported for the compound CCOC(=O)C1=C(CCl)N(C)C(=O)NC1c1ccc2c(c1)OCO2 (stereo not given) is 90% or above.
output: n

input: // inclusive: growth at least 90%? input: `CCOC(=O)NC(=S)n1oc(=O)c2ccccc21`
output: y

input: Record `c1cc(OCCCCCOc2cccc(-c3nc4ccccc4[nH]3)c2)cc(-c2nc3ccccc3[nH]2)c1` ; criterion: growth no lower than 90%. Met?
output: n

input: Entry O=C(/C=C/C12c3ccccc3C(c3ccccc31)C1C(=O)NC(=O)C12)c1ccc(I)cc1 (stereo not given) : is its growth no less than 90%?
output: n
